The reported measurements were obtained from the RNAGym collection of RNA variant scans (doi:10.7554/elife.80360).

This section presents variants with their documented self-cleavage values.
B1: HDV Ribozyme (parent)
chain: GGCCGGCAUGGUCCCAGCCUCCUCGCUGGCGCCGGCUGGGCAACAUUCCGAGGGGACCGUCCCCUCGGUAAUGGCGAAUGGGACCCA

- Variants of: B1
- assayComment: self-cleavage, relative activity (ratio to wild type); higher = more cleavage; co-transcriptional
Field format: numeric only.

See these solved cases before continuing.
In [3]: df
Out[3]:
     variant  reportedresult
0  A56G U65G           0.957
1  G31C U47A           0.467
2   A8U G25C           0.277
3  A42C G67U           0.261
4  C21U G40C           0.166

[Q] Give the measured self-cleavage for G25A C44A
[A] 0

[Q] Give the measured self-cleavage for G59A G80U
[A] 0.179

[Q] Give the measured self-cleavage for G52C G80C
[A] 0.326

[Q] Give the measured self-cleavage for C3A C21G
[A] 0.0115

[Q] Give the measured self-cleavage for G52A A83C
[A] 0.374

[Q] Give the measured self-cleavage for C19G A45G
[A] 0.106
